Origin of values: patent US20250034266A1

Measured log10 of EC50 accompanies every entry in the list below.
# systemTested: T1, human CCR8 (human, UniProt P51685 1-355)
# T1 construct: whole, on cells; In the β-arrestin assay CCR8 is fused to the ProLink (PK) tag; also called hCCR8; CHO-K1-human CCR8
# T1 sequence (P51685 whole entry, the tested form may be a part): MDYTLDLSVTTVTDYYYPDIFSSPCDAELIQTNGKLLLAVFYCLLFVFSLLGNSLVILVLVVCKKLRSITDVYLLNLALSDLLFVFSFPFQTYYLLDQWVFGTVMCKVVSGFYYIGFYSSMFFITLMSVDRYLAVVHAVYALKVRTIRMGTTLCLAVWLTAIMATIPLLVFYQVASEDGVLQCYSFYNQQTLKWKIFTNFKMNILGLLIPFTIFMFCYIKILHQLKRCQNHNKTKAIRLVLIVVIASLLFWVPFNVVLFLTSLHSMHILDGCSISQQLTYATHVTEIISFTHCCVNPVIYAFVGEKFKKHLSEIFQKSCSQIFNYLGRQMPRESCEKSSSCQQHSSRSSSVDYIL
# experimentalProtocol: FACS on HEK293-human CCR8 cells
Parameter value (number): base-10 log of EC50 in nM.

binder: 204A2G12 (antibody, V domains shown, Murine hybridoma antibody) VH: DVQLQESGPGLVKPSQSLSLTCSVTGYSITSGYYWNWIRQFPGNKLEWMGYISYDGTNNYNPSLKNRISITRDTSKNQFFLKLTSVTTEDTATYYCARQVGLRRAWFAYWGQGTLVTVSA VL: DIQMTQSSSFLSVSLGGRVTITCKASDHINYWLAWYQQKPGNAPRLLISGATSLETGVPSRFSGSGSGKDYTLTITSLQNEDVATYYCHQYWSTPTFGSGTKLEIK
log10 of EC50: -0.85

binder: 164G10D6 (antibody, V domains shown, Murine hybridoma antibody; also called 164G10C6) VH: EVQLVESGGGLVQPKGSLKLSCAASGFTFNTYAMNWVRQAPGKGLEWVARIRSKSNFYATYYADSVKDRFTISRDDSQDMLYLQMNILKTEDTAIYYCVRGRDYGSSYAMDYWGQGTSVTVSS VL: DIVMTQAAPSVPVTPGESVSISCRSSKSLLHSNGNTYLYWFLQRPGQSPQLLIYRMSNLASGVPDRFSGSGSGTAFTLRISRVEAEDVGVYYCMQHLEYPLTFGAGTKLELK
log10 of EC50: -0.56

binder: 191E12H8 (antibody, V domains shown, Murine hybridoma antibody) VH: DVQLQESGPGLVKPSQSLSLTCSVTGYSITSGYYWNWIRQFPGNKLEWMGYISYDGSNNYNPSLKNRISITRDISKNQFFLKLNSVTTEDTATYYCARQIGLRRGAMDYWGQGTSVTVSS VL: DIQMTQSSSYLSVSLGGRVTITCKASDHINTWLAWYQQKPGNAPRLLISGSTSLKAGVASRFSGSGSGKDYTLTITSLQTEDVATYYCQQYWGIPFTFGGGTKLEIK
log10 of EC50: 0.18

binder: 262C2G7 (antibody, V domains shown, Murine hybridoma antibody) VH: DVHLQESGPGLVKPSQSLSLTCSVTGYSITSGYYWNWIRQFPGNKLEWMGYISYDGSNNYNPSLKNRISITRDISKNQFFLKLNSVTTEDTATYYCARQIGLRRGAMDYWGQGTSVTVSS VL: DIQMTQSSSYLSVSLGGRVTITCKASDHINNWLAWYQQKPGNAPRLLISGSTSLKAGVASRFSGSGSGKDYTLTITSLQTEDVATYYCQQYWGIPFTFGGGTKLEIK
log10 of EC50: -0.86

Q: Given 160D1E3 (antibody, V domains shown, Murine hybridoma antibody) VH: EVQLVESGGGLVQPKGSLKLSCAASGFTFNTYAMNWVRQAPGKGLEWVARIRSKSNYYATYYADSVKDRFTISRDDSQDMLYLQMNNLKTEDTAIYYCVRGRDYGSSYAMDYWGQGTSVTVSS VL: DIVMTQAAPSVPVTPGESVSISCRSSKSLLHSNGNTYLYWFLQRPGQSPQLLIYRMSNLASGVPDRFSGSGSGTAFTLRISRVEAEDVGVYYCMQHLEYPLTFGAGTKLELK , state its recorded log10 of EC50.
Ans: -0.56
